Data provenance is ChEMBL document CHEMBL4385641.

Listing of recorded pKi by entry.
- study-system: Cannabinoid receptor 1 (Homo sapiens, UniProt P21554)
- Sequence (P21554 whole entry): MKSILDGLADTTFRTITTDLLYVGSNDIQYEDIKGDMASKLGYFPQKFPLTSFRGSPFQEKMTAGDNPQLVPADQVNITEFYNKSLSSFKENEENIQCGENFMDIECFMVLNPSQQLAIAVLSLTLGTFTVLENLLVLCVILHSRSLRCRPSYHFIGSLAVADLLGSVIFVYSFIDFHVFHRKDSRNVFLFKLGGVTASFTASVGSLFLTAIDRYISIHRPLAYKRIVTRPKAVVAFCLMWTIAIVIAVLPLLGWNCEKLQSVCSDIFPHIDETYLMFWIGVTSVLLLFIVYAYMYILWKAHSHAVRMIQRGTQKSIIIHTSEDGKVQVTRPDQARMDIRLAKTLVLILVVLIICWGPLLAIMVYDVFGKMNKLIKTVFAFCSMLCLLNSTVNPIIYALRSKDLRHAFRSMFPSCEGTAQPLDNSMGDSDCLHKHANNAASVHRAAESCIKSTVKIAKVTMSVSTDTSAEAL
pKi: −log10 of the molar value.
recorded-endpoint: pKi

>>> print(df.to_string())
                                    molecule  test_value
 0  CC(C)(C)OCCC(=O)NC1CCN(c2ncnc3c2nc(-c2ccccc2Cl)n3-c2ccc(Cl)cc2)CC1        8.22
 1  O/N=C(\c1ccc(F)cc1)C1CCN(c2ncnc3c2nc(-c2ccccc2Cl)n3-c2ccc(Cl)cc2)CC1 (stereo in doubt; 21)        8.15
 2  Cc1cc(-n2c(-c3ccccc3Cl)nc3c(N4CCC(NS(=O)(=O)c5ccc(F)c(F)c5)CC4)ncnc32)no1        6.38
 3  O=C(NC1CCN(c2ncnc3c2nc(-c2ccccc2Cl)n3-c2ccc(C(F)(F)F)nc2)CC1)c1ccccc1        8.10
 4  O=C(NC1CCN(c2ncnc3c2nc(-c2ccccc2Cl)n3-c2ccc(Cl)cc2)CC1)OCc1ccccc1        8.40
 5  CCCCC(=O)NC1CCN(c2ncnc3c2nc(-c2ccccc2Cl)n3-c2ccc(C(F)(F)F)nc2)CC1        8.52
 6  O=S(=O)(CC1CCCCC1)NC1CCN(c2ncnc3c2nc(-c2ccccc2Cl)n3-c2ccc(Cl)cc2)CC1        8.05
 7  CCCCCS(=O)(=O)NC1CCN(c2ncnc3c2nc(-c2ccccc2Cl)n3-c2ccc(Cl)cc2)CC1        8.05
 8  Clc1ccc(-n2c(-c3ccccc3Cl)nc3c(N4CCC(Nc5ccccc5)CC4)ncnc32)cc1        8.22
 9  O/N=C(\c1ccc(F)cc1)C1CCN(c2ncnc3c2nc(-c2ccccc2Cl)n3-c2ccc(Cl)cc2)CC1 (stereo in doubt; 20)        8.30
10  O=S(=O)(NC1CCN(c2ncnc3c2nc(-c2ccccc2Cl)n3-c2ccc(Cl)cc2)CC1)c1ccc(F)c(F)c1        8.77
11  O=C(NC1CCN(c2ncnc3c2nc(-c2ccccc2Cl)n3-c2ccc(Cl)cc2)CC1)OC1CCC1        9.22
12  O=C(NC1CCN(c2ncnc3c2nc(-c2ccccc2Cl)n3-c2ccc(Cl)cc2)CC1)c1ccc(F)cc1        8.70
13  O=S(=O)(NC1CCN(c2ncnc3c2nc(-c2ccccc2Cl)n3-c2ccc(C(F)(F)F)nc2)CC1)c1ccc(F)c(F)c1        8.00
14  O=S(=O)(CCC(F)(F)F)NC1CCN(c2ncnc3c2nc(-c2ccccc2Cl)n3-c2ccc(Cl)cc2)CC1        8.40
